Data origin: the supplement of paper PMC3334620

target desc: Pdr3 (UniProt P33200)
Sequence: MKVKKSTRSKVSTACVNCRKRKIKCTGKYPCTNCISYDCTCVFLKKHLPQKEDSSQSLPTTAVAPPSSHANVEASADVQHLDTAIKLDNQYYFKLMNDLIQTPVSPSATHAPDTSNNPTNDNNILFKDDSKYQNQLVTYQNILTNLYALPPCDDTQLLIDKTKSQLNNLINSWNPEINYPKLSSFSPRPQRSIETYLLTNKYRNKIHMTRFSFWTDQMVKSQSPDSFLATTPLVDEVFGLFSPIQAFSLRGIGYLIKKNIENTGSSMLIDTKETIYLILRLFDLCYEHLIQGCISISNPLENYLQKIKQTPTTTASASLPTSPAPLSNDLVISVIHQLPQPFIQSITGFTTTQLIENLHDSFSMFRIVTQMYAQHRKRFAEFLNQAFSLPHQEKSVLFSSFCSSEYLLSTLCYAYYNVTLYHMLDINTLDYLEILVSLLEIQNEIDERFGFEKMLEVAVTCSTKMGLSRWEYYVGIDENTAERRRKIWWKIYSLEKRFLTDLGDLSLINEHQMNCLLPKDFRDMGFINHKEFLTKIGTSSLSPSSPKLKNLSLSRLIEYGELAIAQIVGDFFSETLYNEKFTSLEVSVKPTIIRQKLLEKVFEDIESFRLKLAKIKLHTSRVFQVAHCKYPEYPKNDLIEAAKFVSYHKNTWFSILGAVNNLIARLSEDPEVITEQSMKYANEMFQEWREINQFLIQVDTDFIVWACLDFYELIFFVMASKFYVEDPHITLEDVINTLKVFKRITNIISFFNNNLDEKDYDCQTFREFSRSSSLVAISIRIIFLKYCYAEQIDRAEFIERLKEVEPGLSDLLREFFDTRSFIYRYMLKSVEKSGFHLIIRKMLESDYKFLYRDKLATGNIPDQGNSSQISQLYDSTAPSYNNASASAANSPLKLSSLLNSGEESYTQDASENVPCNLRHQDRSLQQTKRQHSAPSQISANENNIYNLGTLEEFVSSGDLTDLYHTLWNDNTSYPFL
protocol details: PBM E-score (8-mer binding enrichment) (E-score (-0.5 to 0.5)); higher = stronger / more preferred TF binding
measurement context: protein concentration: 200 nM; construct: GST-full length
Over roughly 33,000 sequences, “E-score (-0.5 to 0.5)” has its median near -0.035; the highest 2% begin near 0.35. What follows is part of a selection rich in the highest values, with near analogues and random picks from the rest.

[
  {
    "sequence chain": "CATGAAGC",
    "PBM E-score": 0.058
  },
  {
    "sequence chain": "CCGTGGAA",
    "PBM E-score": 0.437
  },
  {
    "sequence chain": "GCGTGGAA",
    "PBM E-score": 0.0102
  },
  {
    "sequence chain": "CTAGTCTC",
    "PBM E-score": -0.269
  },
  {
    "sequence chain": "AACCCGCG",
    "PBM E-score": 0.431
  },
  {
    "sequence chain": "CCGTGGAC",
    "PBM E-score": 0.274
  },
  {
    "sequence chain": "TGGAGTAA",
    "PBM E-score": -0.0368
  },
  {
    "sequence chain": "GGGAAGAA",
    "PBM E-score": -0.0436
  },
  {
    "sequence chain": "AACCCGCA",
    "PBM E-score": 0.18
  },
  {
    "sequence chain": "CTGAAGCA",
    "PBM E-score": -0.199
  },
  {
    "sequence chain": "ATCCCGCG",
    "PBM E-score": 0.465
  },
  {
    "sequence chain": "CCGTGGAG",
    "PBM E-score": 0.382
  },
  {
    "sequence chain": "ATCCCGCC",
    "PBM E-score": 0.322
  },
  {
    "sequence chain": "CACCCGCG",
    "PBM E-score": 0.42
  },
  {
    "sequence chain": "AACCCGCC",
    "PBM E-score": 0.165
  },
  {
    "sequence chain": "ACGTGGAG",
    "PBM E-score": -0.132
  },
  {
    "sequence chain": "AGGAAGAA",
    "PBM E-score": -0.186
  },
  {
    "sequence chain": "AGGAAGAG",
    "PBM E-score": -0.0084
  },
  {
    "sequence chain": "AGCCCGCG",
    "PBM E-score": 0.381
  },
  {
    "sequence chain": "CGCCCGCG",
    "PBM E-score": 0.314
  },
  {
    "sequence chain": "GAGCGAAA",
    "PBM E-score": 0.146
  },
  {
    "sequence chain": "ACGTGGAA",
    "PBM E-score": -0.0114
  }
]
